All values here come from the supplement of paper PMC10724198.

- Tested on: Saccharomyces cerevisiae
- protocol details: protein stability index of tFT-peptide fusion (C-terminal peptide) (PSI (0-1 scale)); higher = more stable (slower turnover)
- experimental context: genetic background: das1 deletion; temperature: 30 C
Lab note: anything with protein stability index at or over 0.7 counts as Satisfied; the rest go in Not satisfied.

1. AAPQDINQQPNQ [LDS1 C-terminal 12 aa] :: Satisfied
2. QALFVLYYLYSI [YDR406W-A C-terminal 12 aa] :: Not satisfied
3. CLRTVLKSDEIK [SFA1 C-terminal 12 aa] :: Not satisfied
4. LYEEHQQMLDKQ [IPI3 C-terminal 12 aa] :: Satisfied
5. SDAVAEANDIDD [TOM20 C-terminal 12 aa] :: Not satisfied

[in] Test whether the sequence DWLIDVIKEEQL [ARL1 C-terminal 12 aa] records protein stability index of 0.7 or higher.
[out] Satisfied

[in] Test whether the sequence IYKYCCCCFCCC [YCK3 C-terminal 12 aa] records protein stability index of 0.7 or higher.
[out] Not satisfied

[in] Test whether the sequence LECTPIINLFIV [MNL1 C-terminal 12 aa] records protein stability index of 0.7 or higher.
[out] Not satisfied

[in] Test whether the sequence RPVLSEEQRKNC [YDR344C C-terminal 12 aa] records protein stability index of 0.7 or higher.
[out] Not satisfied

[in] Test whether the sequence KRLIGIAEATLN [SEC31 C-terminal 12 aa] records protein stability index of 0.7 or higher.
[out] Not satisfied
